# study target: DCAMKL2 (Homo sapiens, UniProt Q8N568)
# Sequence (Q8N568 whole entry): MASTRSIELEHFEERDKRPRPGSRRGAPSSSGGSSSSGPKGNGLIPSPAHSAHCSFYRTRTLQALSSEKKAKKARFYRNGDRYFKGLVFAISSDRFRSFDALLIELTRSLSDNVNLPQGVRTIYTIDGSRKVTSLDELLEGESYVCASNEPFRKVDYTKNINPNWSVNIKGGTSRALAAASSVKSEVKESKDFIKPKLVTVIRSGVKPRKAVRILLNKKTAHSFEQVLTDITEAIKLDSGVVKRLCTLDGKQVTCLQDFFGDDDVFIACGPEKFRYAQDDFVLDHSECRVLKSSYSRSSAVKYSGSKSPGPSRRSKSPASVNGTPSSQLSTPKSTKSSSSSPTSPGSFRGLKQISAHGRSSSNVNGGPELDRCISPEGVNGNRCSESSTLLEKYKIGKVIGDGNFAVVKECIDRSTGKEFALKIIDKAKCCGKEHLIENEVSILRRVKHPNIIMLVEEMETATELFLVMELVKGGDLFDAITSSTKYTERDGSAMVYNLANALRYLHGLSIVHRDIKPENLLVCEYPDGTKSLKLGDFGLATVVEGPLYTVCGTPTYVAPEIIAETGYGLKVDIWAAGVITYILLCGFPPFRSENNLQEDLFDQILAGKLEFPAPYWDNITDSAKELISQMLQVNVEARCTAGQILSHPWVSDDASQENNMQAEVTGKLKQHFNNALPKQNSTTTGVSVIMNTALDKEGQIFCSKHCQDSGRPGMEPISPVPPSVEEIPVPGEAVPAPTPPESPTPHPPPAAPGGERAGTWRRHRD
# assay summary: KINOMEscan competition binding
# test parameters: read-out: %Inh DCAMKL2
readout kind: inhibition at 1 µM (%)
Form entry: value (%) — number only.

What does the record list as inhibition at 1 µM for CS(=O)(=O)Cc1ccc(Nc2nccc(-c3c(-c4cccc(NC(=O)C5CCCCC5)c4)nn4ncccc34)n2)cc1 [UNC10225159A] ?
15

// lookup inhibition at 1 µM for O=c1cc(N2CCOCC2)nc2n(Cc3cccc(Cl)c3Cl)c(C3CC3)nn12 [UNC10225469A]
7

Fill in: inhibition at 1 µM of Cn1cc(-c2cnc(N)c3c(-c4ccc5c(c4)CCN5C(=O)Cc4ccccc4)csc23)cn1 [UNC10225012A] is ___
0

Bench note: what inhibition at 1 µM did COc1cccc(OC)c1C(=O)Nc1cccc(-c2nn3ccccc3c2-c2ccnc(Nc3cccc(F)c3)n2)c1 [UNC10225310A] show?
0

Need inhibition at 1 µM of Cc1ccc(NC(=O)Nc2cccc(C(F)(F)F)c2)cc1 [UNC10225187A] , thanks.
0

* * *

# study target: EPHB4 (Homo sapiens, UniProt P54760)
# Sequence (P54760 16-987): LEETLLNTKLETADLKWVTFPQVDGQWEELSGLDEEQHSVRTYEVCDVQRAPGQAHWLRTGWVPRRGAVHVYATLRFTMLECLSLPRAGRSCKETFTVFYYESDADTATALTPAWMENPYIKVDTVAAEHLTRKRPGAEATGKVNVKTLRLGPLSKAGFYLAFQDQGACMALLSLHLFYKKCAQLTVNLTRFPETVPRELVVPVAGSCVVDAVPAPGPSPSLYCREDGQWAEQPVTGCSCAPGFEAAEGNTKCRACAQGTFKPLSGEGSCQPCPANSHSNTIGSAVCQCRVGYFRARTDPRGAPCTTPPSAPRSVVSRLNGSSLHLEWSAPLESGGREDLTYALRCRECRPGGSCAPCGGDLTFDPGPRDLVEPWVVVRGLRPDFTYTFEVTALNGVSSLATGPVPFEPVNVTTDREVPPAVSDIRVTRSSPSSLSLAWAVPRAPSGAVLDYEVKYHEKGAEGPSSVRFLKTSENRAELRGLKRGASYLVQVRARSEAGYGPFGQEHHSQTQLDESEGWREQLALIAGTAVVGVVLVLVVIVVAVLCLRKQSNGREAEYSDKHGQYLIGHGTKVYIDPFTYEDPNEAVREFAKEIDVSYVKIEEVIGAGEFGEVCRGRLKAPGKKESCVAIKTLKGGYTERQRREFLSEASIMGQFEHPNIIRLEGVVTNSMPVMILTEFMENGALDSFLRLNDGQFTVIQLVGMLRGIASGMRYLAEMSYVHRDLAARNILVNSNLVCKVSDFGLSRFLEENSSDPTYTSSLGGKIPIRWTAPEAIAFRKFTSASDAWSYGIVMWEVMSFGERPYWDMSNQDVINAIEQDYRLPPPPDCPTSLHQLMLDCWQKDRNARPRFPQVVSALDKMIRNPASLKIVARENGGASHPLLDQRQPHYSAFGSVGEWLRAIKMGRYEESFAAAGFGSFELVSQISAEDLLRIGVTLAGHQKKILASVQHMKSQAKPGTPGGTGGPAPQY
# assay summary: KINOMEscan competition binding
# test parameters: read-out: %Inh EPHB4
readout kind: inhibition at 1 µM (%)
Provide only the numeric value, understood in %.

Recorded inhibition at 1 µM of Cc1ccc(NC(=O)Nc2cccc(C(F)(F)F)c2)cc1 [UNC10225187A] , please.
0

Fill in: inhibition at 1 µM of CS(=O)(=O)Cc1ccc(Nc2nccc(-c3c(-c4cccc(NC(=O)C5CCCCC5)c4)nn4ncccc34)n2)cc1 [UNC10225159A] is ___
0

Recorded inhibition at 1 µM of O=c1cc(N2CCOCC2)nc2n(Cc3cccc(Cl)c3Cl)c(C3CC3)nn12 [UNC10225469A] , please.
3

Quick one: inhibition at 1 µM of COc1cccc(OC)c1C(=O)Nc1cccc(-c2nn3ccccc3c2-c2ccnc(Nc3cccc(F)c3)n2)c1 [UNC10225310A] ?
8

// query inhibition at 1 µM value for entry Cn1cc(-c2cnc(N)c3c(-c4ccc5c(c4)CCN5C(=O)Cc4ccccc4)csc23)cn1 [UNC10225012A]
9

* * *

# study target: ACVR2A (Homo sapiens)
# Sequence (P27037 20-513): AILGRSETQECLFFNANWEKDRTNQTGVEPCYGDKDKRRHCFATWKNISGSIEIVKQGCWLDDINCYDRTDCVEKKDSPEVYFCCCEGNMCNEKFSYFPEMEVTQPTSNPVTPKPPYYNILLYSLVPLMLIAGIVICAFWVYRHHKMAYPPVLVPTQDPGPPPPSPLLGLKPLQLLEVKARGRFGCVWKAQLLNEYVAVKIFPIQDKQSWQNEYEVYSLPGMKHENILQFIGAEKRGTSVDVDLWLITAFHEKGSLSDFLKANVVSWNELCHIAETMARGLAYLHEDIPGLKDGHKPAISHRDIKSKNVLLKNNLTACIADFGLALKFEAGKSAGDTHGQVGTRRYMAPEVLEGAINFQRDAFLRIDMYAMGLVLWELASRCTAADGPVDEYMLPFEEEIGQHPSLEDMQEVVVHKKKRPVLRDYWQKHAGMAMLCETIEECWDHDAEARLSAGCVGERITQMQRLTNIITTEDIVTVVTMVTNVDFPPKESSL
# assay summary: KINOMEscan competition binding
# test parameters: read-out: %Inh ACVR2A
Record form. Attribute: inhibition at 1 µM. Fill in for each entry.
Your answer is read as %, so omit the unit and give the number.

GET /values?readout=inhibition at 1 µM&system=ACVR2A (Homo sapiens)&item= O=c1cc(N2CCOCC2)nc2n(Cc3cccc(Cl)c3Cl)c(C3CC3)nn12 [UNC10225469A]
0

Find inhibition at 1 µM (ACVR2A (Homo sapiens)) for the entry Cn1cc(-c2cnc(N)c3c(-c4ccc5c(c4)CCN5C(=O)Cc4ccccc4)csc23)cn1 [UNC10225012A]
0

Param readout = inhibition at 1 µM; param system = ACVR2A (Homo sapiens); param query = Cc1ccc(NC(=O)Nc2cccc(C(F)(F)F)c2)cc1 [UNC10225187A] ; response: value
2

Reported inhibition at 1 µM for ACVR2A (Homo sapiens), given COc1cccc(OC)c1C(=O)Nc1cccc(-c2nn3ccccc3c2-c2ccnc(Nc3cccc(F)c3)n2)c1 [UNC10225310A] ?
7

Tell me reported inhibition at 1 µM for CS(=O)(=O)Cc1ccc(Nc2nccc(-c3c(-c4cccc(NC(=O)C5CCCCC5)c4)nn4ncccc34)n2)cc1 [UNC10225159A] , tested with ACVR2A (Homo sapiens).
0

* * *

# study target: LKB1 (Homo sapiens)
# Sequence (Q15831 whole entry): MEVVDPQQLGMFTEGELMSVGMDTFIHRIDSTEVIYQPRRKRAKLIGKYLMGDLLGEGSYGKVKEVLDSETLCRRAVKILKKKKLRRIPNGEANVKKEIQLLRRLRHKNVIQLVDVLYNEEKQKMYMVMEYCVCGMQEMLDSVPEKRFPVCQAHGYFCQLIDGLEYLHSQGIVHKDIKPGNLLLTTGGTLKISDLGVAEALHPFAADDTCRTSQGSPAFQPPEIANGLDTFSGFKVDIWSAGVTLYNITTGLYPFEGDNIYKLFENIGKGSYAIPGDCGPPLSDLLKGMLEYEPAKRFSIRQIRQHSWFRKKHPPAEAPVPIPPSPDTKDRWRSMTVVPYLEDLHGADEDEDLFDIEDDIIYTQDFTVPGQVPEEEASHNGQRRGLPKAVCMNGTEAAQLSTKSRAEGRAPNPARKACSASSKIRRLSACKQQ
# assay summary: KINOMEscan competition binding
# test parameters: read-out: %Inh LKB1
Kindly supply the reported inhibition at 1 µM values for the records listed here.
Provide the reading as a plain figure in %.

Entry CS(=O)(=O)Cc1ccc(Nc2nccc(-c3c(-c4cccc(NC(=O)C5CCCCC5)c4)nn4ncccc34)n2)cc1 [UNC10225159A] : reported inhibition at 1 µM = ?
0

Report inhibition at 1 µM for Cn1cc(-c2cnc(N)c3c(-c4ccc5c(c4)CCN5C(=O)Cc4ccccc4)csc23)cn1 [UNC10225012A] please.
0

Query (compound): Cc1ccc(NC(=O)Nc2cccc(C(F)(F)F)c2)cc1 [UNC10225187A] ; field requested: inhibition at 1 µM
16

# lookup: inhibition at 1 µM of COc1cccc(OC)c1C(=O)Nc1cccc(-c2nn3ccccc3c2-c2ccnc(Nc3cccc(F)c3)n2)c1 [UNC10225310A]
6

Give the measured inhibition at 1 µM of O=c1cc(N2CCOCC2)nc2n(Cc3cccc(Cl)c3Cl)c(C3CC3)nn12 [UNC10225469A] .
15

* * *

# study target: EPHB3 (Homo sapiens)
# Sequence (P54753 34-998): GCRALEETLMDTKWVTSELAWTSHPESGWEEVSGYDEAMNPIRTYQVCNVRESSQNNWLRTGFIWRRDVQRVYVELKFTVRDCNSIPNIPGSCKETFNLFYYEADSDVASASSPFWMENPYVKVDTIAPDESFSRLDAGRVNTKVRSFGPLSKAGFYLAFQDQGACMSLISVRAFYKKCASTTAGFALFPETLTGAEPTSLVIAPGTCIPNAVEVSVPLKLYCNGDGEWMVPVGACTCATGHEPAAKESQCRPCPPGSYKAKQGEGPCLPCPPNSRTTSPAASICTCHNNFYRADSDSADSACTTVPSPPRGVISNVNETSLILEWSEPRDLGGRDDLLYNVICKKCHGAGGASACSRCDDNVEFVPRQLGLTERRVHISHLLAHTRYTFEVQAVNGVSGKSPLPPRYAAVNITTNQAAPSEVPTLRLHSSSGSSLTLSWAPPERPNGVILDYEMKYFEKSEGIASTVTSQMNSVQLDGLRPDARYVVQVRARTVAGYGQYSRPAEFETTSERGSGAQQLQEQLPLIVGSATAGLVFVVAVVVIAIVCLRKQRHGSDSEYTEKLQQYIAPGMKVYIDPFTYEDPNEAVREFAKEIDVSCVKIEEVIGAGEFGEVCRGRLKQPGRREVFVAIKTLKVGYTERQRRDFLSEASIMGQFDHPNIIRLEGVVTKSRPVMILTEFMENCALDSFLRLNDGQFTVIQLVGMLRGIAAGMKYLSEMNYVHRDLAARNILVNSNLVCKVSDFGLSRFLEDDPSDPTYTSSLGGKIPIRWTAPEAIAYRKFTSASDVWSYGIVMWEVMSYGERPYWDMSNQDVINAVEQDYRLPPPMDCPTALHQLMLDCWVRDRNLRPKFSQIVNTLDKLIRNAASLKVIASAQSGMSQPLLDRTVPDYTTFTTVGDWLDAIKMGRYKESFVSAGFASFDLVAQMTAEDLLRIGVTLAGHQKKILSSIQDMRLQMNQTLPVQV
# assay summary: KINOMEscan competition binding
# test parameters: read-out: %Inh EPHB3
Field: inhibition at 1 µM. Provide a value for each of the molecules that follow.
Numbers only; they are read as %.

State the recorded inhibition at 1 µM for this entry: COc1cccc(OC)c1C(=O)Nc1cccc(-c2nn3ccccc3c2-c2ccnc(Nc3cccc(F)c3)n2)c1 [UNC10225310A]
8

Suppose we examine the molecule Cn1cc(-c2cnc(N)c3c(-c4ccc5c(c4)CCN5C(=O)Cc4ccccc4)csc23)cn1 [UNC10225012A] ; what inhibition at 1 µM value has been reported?
4

Field request: inhibition at 1 µM | item: Cc1ccc(NC(=O)Nc2cccc(C(F)(F)F)c2)cc1 [UNC10225187A]
0

Endpoint output: inhibition at 1 µM of O=c1cc(N2CCOCC2)nc2n(Cc3cccc(Cl)c3Cl)c(C3CC3)nn12 [UNC10225469A] . Value?
7

Which measured inhibition at 1 µM value corresponds to CS(=O)(=O)Cc1ccc(Nc2nccc(-c3c(-c4cccc(NC(=O)C5CCCCC5)c4)nn4ncccc34)n2)cc1 [UNC10225159A] ?
5

* * *

Task for the reader: assign each of the following compounds its reported inhibition at 1 µM.
# study target: DAPK2 (Homo sapiens, UniProt Q9UIK4)
# Sequence (Q9UIK4 whole entry): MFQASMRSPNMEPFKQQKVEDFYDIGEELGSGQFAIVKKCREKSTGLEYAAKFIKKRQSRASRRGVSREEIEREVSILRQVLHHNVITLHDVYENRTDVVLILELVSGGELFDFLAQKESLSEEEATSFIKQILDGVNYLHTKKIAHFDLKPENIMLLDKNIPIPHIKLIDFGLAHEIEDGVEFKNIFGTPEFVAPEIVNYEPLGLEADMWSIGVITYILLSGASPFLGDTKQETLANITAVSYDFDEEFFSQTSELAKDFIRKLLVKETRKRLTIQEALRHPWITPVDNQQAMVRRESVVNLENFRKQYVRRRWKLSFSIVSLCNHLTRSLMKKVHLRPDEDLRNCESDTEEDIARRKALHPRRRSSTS
# assay summary: KINOMEscan competition binding
# test parameters: read-out: %Inh DAPK2
Respond numerically; units are % and should not be typed.

Fill in: inhibition at 1 µM of Cc1ccc(NC(=O)Nc2cccc(C(F)(F)F)c2)cc1 [UNC10225187A] is ___
3

Recorded inhibition at 1 µM for CS(=O)(=O)Cc1ccc(Nc2nccc(-c3c(-c4cccc(NC(=O)C5CCCCC5)c4)nn4ncccc34)n2)cc1 [UNC10225159A] , please?
9

Would you kindly share the measured inhibition at 1 µM for O=c1cc(N2CCOCC2)nc2n(Cc3cccc(Cl)c3Cl)c(C3CC3)nn12 [UNC10225469A] ?
12

# inhibition at 1 µM lookup, item Cn1cc(-c2cnc(N)c3c(-c4ccc5c(c4)CCN5C(=O)Cc4ccccc4)csc23)cn1 [UNC10225012A]
21

Request the reported inhibition at 1 µM associated with COc1cccc(OC)c1C(=O)Nc1cccc(-c2nn3ccccc3c2-c2ccnc(Nc3cccc(F)c3)n2)c1 [UNC10225310A]
6

Values from paper PMC5540273
